Tested on: BT-549 breast
assay_method_text: NCI-60 one-dose screen, 48 h (100 = growth as untreated, 0 = no growth, -100 = all killed)
reported_conditions: 10 µM unless noted
Method: Growth inhibition of the BT-549 human tumor cell line is measured as a screen for anti-cancer activity. Cells are grown in 96 well plates and exposed to the test compound for 48 hours. Compounds are tested at a single concentration, which is 10^-5 M for most compounds. The reported endpoint is percent growth (GI% or GIPRCNT), where numbers from 0 - 100% represent growth inhibition, and numbers from -100% - 0 represent cell death. For example, a value of 40 represents 60% growth inhibition. […]
About 83,000 compounds went through this panel and 20% of them were active in at least one assay; those are over-represented in the sample as a whole.
Threshold check on growth: strictly below 50% is rule met; on or above 50% is rule not met.

compound: O=C(CCCCCCC(=O)Nc1ccc(N(CCCl)CCCl)cc1)NO
category_label: rule not met

compound: CC1=C(CNO)C2=C(C)C3(CC3)[C@@](C)(O)C(=O)C2=C1
category_label: rule met

compound: N#C[S-].[Au+].c1ccc(CN2[CH-]N(Cc3ccccc3)C(c3ccccc3)=C2c2ccccc2)cc1
category_label: rule met

compound: CCCCCN(CCCCC)CC(O)c1cc(Cl)ccc1OC (stereo not drawn)
category_label: rule not met

compound: CCCCCCCCCCCCCCCCCC1OC[C@H](COC(=O)O[C@@H](C(=O)O[C@H]2C[C@@]3(O)[C@@H](OC(=O)c4ccccc4)[C@@H]4[C@]5(OC(C)=O)CO[C@@H]5C[C@H](O)[C@@]4(C)C(=O)[C@H](OC(C)=O)C(=C2C)C3(C)C)[C@@H](NC(=O)c2ccccc2)c2ccccc2)O1 (stereo partly drawn)
category_label: rule not met

compound: Nc1nc([Se])c2ncn(C3OC(CO)C(O)C3O)c2n1 (stereo not drawn)
category_label: rule not met

compound: CC1(C)N=C(N)N=C(N)N1c1ccc(CCCCc2ccc(Cl)c(S(=O)(=O)F)c2)c(Cl)c1
category_label: rule met

----------
Tested on: CAKI-1 renal
assay_method_text: NCI-60 one-dose screen, 48 h (100 = growth as untreated, 0 = no growth, -100 = all killed)
reported_conditions: 10 µM unless noted
Procedure: Growth inhibition of the CAKI-1 human tumor cell line is measured as a screen for anti-cancer activity. Cells are grown in 96 well plates and exposed to the test compound for 48 hours. Compounds are tested at a single concentration, which is 10^-5 M for most compounds. The reported endpoint is percent growth (GI% or GIPRCNT), where numbers from 0 - 100% represent growth inhibition, and numbers from -100% - 0 represent cell death. For example, a value of 40 represents 60% growth inhibition. […]
This is part of a sample that, as a whole, favours compounds with a hit. Of some 83,000 tested, about 20% had one in any assay.
Label true for high-side growth (at or above 30%) and false for low-side growth (below it).

mol_smiles: CCn1cnc2c(Nc3cccc(Cl)c3)nc(N[C@@H]3CCCC[C@@H]3N)nc21
category_label: false
//
mol_smiles: C[CH2][Sn]([Cl])([Cl])[CH2]C.Oc1ccccc1C=NCCN=Cc1ccccc1O
category_label: true
//
mol_smiles: CCCCCCCC[N+](C)(CCCCCCCC)CCCCCCCC
category_label: false
//
mol_smiles: COc1ccc(/C=C\c2cc(OC)c(OC)c(OC)c2)c(NS(=O)(=O)c2ccc(Cl)cc2)c1O
category_label: false
//
mol_smiles: COc1cc(/C=C/[N+](=O)[O-])cc(OC)c1
category_label: true

----------
Test system: HOP-92 NSCLC
assay_method_text: NCI-60 one-dose screen, 48 h
reported_conditions: 10 µM unless noted
This is part of a sample that, as a whole, favours compounds with a hit. Of some 83,000 tested, about 20% had one in any assay. The source made the active and inactive calls. The calls were made as follows: active = growth percent below 10; inactive = the rest.
Possible outcomes: 1 (yes) = active, 0 (no) = inactive

compound: CN(C)CCCOc1ccc2c(c1)c(C(=O)C(=O)NCCO)cn2Cc1ccccc1
category_label: 0 (no)
//
compound: COC(=O)N[C@H]1CCc2c(Br)c(OC)c(OC)c(OC)c2-c2ccc(SC)c(=O)cc21
category_label: 1 (yes)
//
compound: COC(=O)CCc1c[nH]c2ccc(N(CCCl)CCCl)cc12
category_label: 0 (no)
//
compound: CC(=O)O[C@H](C[C@H](C(C)C)N(C)C(=O)[C@@H](NC(=O)[C@H]1CCCCN1C)C(C)C)c1nc(C(=O)N[C@@H](Cc2ccccc2)C[C@H](C)C(=O)O)c(CCOCc2ccccc2)s1
category_label: 1 (yes)
//
compound: CCCCCCCCCCCCNC(c1ccccc1)C(O)c1ccccc1 (stereo not drawn)
category_label: 0 (no)
//
compound: COc1ccc2nc(NC(=O)COc3cc(/C=C\c4cc(OC)c(OC)c(OC)c4)ccc3OC)sc2c1
category_label: 0 (no)
//
compound: NC(=S)c1cn(C2OC(CO)C(O)C2O)c2ncnc(N)c12 (stereo not drawn)
category_label: 1 (yes)
//
compound: COC(=O)[C@@H](C)C[C@H](Cc1ccc(F)cc1)NC(=O)c1csc([C@@H](C[C@H](C(C)C)N(C)C(=O)[C@@H](NC(=O)[C@H]2CCCCN2C)C2CC2)OC(C)=O)n1
category_label: 0 (no)
//
compound: CNCc1cccnc1
category_label: 0 (no)
//
compound: COC(=O)[C@@H](C)C[C@H](Cc1ccccc1)NC(=O)c1nc([C@@H](C[C@H](C(C)C)N(C)C(=O)[C@@H](NC(=O)[C@H]2CCCN2C)C(C)C)OC(C)=O)sc1C
category_label: 1 (yes)
//
compound: Cc1ccc(S(=O)(=O)F)cc1C(=O)O
category_label: 0 (no)
//
compound: CCOC(=O)CCN(C)C1=Nc2ccc(Cl)cc2C(c2ccccc2)=[N+]([O-])C1
category_label: 0 (no)
//
compound: COc1ccc2c(c1)c(-c1nc(-c3c[nH]c4ncccc34)cs1)cn2CCN1CCOCC1
category_label: 0 (no)
//
compound: COC(=O)[C@@]1(C)CC[C@]2(C)CC[C@]3(C)C4=CC=C5C(=CC(=O)C(O)=C5C)[C@]4(C)CC[C@@]3(C)[C@@H]2C1
category_label: 1 (yes)
//
compound: Nc1ccc2c(c1)oc1ccccc12
category_label: 0 (no)
//
compound: C[C@@H]1O[C@@H](O[C@H]2C[C@@H](O)[C@]3(CO)C4C(CC[C@]3(O)C2)[C@@]2(O)CC[C@H](C3=CC(=O)OC3)[C@@]2(C)C[C@H]4O)[C@H](O)[C@H](O)[C@H]1O (stereo partly drawn)
category_label: 1 (yes)
//
compound: O=C(Nc1ccc(Cl)cc1)Nc1nccs1
category_label: 0 (no)
//
compound: CC[C@@H]1[C@@H](C)O[C@@](O)([C@@H](C)[C@H](O)[C@H](C)[C@H]2OC(=O)/C=C/C=C/[C@H](C)[C@@H]([C@@H](C)[C@@H](O)[C@H](C)[C@@]3(O)C[C@@H](O[C@H]4C[C@@H](O)[C@H](O)C(C)O4)[C@H](CC)[C@@H](C)O3)OC(=O)/C=C/C=C/[C@@H]2C)C[C@H]1O[C@@H]1C[C@@H](O)[C@H](O)C(C)O1 (stereo partly drawn)
category_label: 1 (yes)
//
compound: CCC(C)(C)[C@H](NC(=O)[C@H]1CCCCN1C)C(=O)N(C)[C@H](C[C@@H](OC(C)=O)c1nc(C(=O)N[C@@H](Cc2ccccc2)C[C@H](C)C(=O)O)cs1)C(C)C
category_label: 0 (no)
//
compound: C/C(Cc1ccc(Cl)cc1)=C(\c1ccc(OCCN2CCOCC2)cc1)c1ccc(OC(=O)Cc2ccccc2)cc1
category_label: 0 (no)
//
compound: CN(C)C(=O)Oc1ccccc1-c1ccccc1
category_label: 0 (no)
//
compound: CCC1(C)CC(CCNCc2ccccc2O)(c2ccc(C)cc2)CCO1 (stereo not drawn)
category_label: 0 (no)
//
compound: C[C@]12CC[C@H]3[C@@H](CC[C@]4(O)C[C@@H](O[C@@H]5O[C@H](CO)[C@@H](O[C@@H]6OC[C@@H](O)[C@H](O)[C@H]6O)[C@H](O)[C@H]5O)CC[C@]34C=O)[C@@]1(O)CC[C@@H]2C1=CC(=O)OC1
category_label: 0 (no)
//
compound: CC1(C)N=C(N)N=C(N)N1c1cccc(CCCCc2ccc(Cl)c(S(=O)(=O)F)c2)c1
category_label: 0 (no)
//
compound: CCOC(=O)CCC(NC(=O)C(Cc1ccc(N(CCCl)CCCl)cc1)NC=O)C(=O)OCC (stereo not drawn)
category_label: 1 (yes)
//
compound: CCCCCCCCOC(=O)CCN1CC1
category_label: 0 (no)
//
compound: O=C1C(Cl)=C(N2CCOCC2)C(=O)c2ccccc21
category_label: 1 (yes)
//
compound: N#C[S-].[Au+].c1ccc(CN2[CH-]N(Cc3ccccc3)C(c3ccccc3)=C2c2ccccc2)cc1
category_label: 1 (yes)
//
compound: CCCCC1(CCC)C(=O)NC(=S)NC1=O
category_label: 0 (no)
//
compound: ClC1=C(Cl)C(Cl)(C2(Cl)C(Cl)=C(Cl)C(Cl)=C2Cl)C(Cl)=C1Cl
category_label: 1 (yes)
//
compound: C=CCc1cc2c(cc1OCC)OCO2
category_label: 0 (no)
//
compound: O=[N+]([O-])CC(c1ccccc1Cl)c1c(-c2ccccc2)[nH]c2ccccc12 (stereo not drawn)
category_label: 0 (no)
//
compound: C[C@]12CCc3sc(-c4ccccc4O)nc3C1=CC[C@@H]1[C@@H]2CC[C@]2(C)C(=O)CC[C@@H]12
category_label: 0 (no)
